Reported kinact/KI by item:
Target: porcine pancreatic elastase (PPE) (Sus scrofa)
Construct: from tissue; host or cells: porcine pancreas (from the name)
Sequence (P00772 27-266): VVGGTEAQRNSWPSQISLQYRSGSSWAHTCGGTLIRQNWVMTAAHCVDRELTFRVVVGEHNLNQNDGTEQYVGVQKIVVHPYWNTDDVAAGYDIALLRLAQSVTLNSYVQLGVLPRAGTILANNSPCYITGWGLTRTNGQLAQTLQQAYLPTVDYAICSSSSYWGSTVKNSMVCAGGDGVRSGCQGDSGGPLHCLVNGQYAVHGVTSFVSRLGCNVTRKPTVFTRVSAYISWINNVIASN
Test: Inactivation of porcine pancreatic elastase (PPE)
Type: biochemical
Settings: pH 7.5; Table XII; 2.5% Me2SO, 25° C; [I] 34-56 μM; read-out: kobs/[I]
reported-property: kinact/KI (M⁻¹ s⁻¹)

# smiles-entry, reported-property, value
data = [
    ("CCCOc1oc(=O)c2cc(NC(=O)Nc3ccccc3)ccc2c1Cl", "kinact/KI", 520),
    ("CCCOc1oc(=O)c2cc(NC(=O)NCC)ccc2c1Cl", "kinact/KI", 80),
    ("CCCOc1oc(=O)c2cc(NC(=O)CCc3ccccc3)ccc2c1Cl", "kinact/KI", 220),
    ("CCCOc1oc(=O)c2cc(NC(=O)OCC)ccc2c1Cl", "kinact/KI", 1600),
]
